meta.source: ChEMBL document CHEMBL4483862

system: Plasmodium berghei; test: Luciferase/luciferin-expressing antifolate-resistant parasites were used to infect a culture of HepG2 cells that were pre-incubated with compounds. Infected hepatocytes emit light due to the luciferase reaction. Assay results are presented as the percent inhibition of light emission compared to control. […]; type: functional; conditions: sporozoite, PBLUC_HILL_SLOPE 3.18, 2.13, PBLUC_R_SQUARED 0.929, 0.663, read-out: LUCIFERASE INFECTION ASSAY - IC50
reportedMetric: IC50 (nM)
The reply should contain only the number, in nM.

Just so you know, measured IC50 for C=CCNC(=O)C(C)Sc1nnc(-c2ccc(C)cc2)c(-c2ccc(C)cc2)n1 (stereo unspecified) came out at 807
